# tested.target: Tyrosine-protein phosphatase non-receptor type 1 (Homo sapiens, UniProt P18031)
# Sequence (P18031 whole entry): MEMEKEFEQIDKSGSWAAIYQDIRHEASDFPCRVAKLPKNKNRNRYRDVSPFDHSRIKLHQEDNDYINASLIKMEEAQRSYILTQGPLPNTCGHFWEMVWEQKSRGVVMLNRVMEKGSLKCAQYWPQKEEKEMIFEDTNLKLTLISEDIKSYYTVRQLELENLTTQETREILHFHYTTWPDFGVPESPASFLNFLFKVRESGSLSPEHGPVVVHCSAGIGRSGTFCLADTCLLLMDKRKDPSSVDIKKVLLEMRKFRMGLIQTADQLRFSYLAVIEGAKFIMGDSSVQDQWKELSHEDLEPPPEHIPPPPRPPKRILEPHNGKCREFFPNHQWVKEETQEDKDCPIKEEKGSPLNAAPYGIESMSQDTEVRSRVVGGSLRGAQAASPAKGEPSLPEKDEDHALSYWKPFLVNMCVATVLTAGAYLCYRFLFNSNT
# assay.text: Inhibition of GST-tagged human PTP1B expressed in Escherichia coli using pNPP substrate assessed as reduction in p-nitrophenol release
pIC50: −log10 of the molar value.
readout: pIC50

1) C=C1CC[C@@H]2[C@H]1[C@H]1[C@@H](C(C)CC(=O)C=C(C)C)CC[C@]12C (some centres undefined) | 5.23
2) OC[C@H]1O[C@@H](O[C@@H]2c3ccccc3[C@H](O)C[C@H]2O)[C@H](O)[C@@H](O)[C@@H]1O | 5.26
3) C=C(CCC=C(C)C)[C@H]1CC[C@]2(C)CCCC(=C)[C@H]2C1 [LOBOPHYTUMIN C] | 5.11

* * *

# tested.target: UniProt P18031
# assay.text: Inhibition of GST-tagged human PTP1B expressed in Escherichia coli using pNPP substrate assessed as reduction in p-nitrophenol release
Each record here notes measured IC50.
readout: IC50

1. O=C1C[C@@H]2c3ccccc3O[C@H]3c4cc(O)ccc4-c4c(O)cc(O)c1c4[C@H]23 | 3.5 to 7.6 µM
2. COc1cc(O)c2c3c1-c1ccc(O)cc1[C@@H]1Oc4ccccc4[C@@H](CC2=O)[C@@H]31 | 3.5 to 7.6 µM
3. O=C1C[C@]2(O)c3ccccc3O[C@H]3c4cc(O)ccc4-c4c(O)cc(O)c1c4[C@@H]32 | 3.5 to 7.6 µM
4. CC1=CCC[C@H]2[C@@H](C)[C@@](C)(CC3=C(O)C(=O)C=C(CCCS(=O)(=O)O)C3=O)CC[C@]12C | 1.5 µM
